# studySystem: Muscarinic acetylcholine receptor M2 (Rattus norvegicus) (UniProt P10980)
# Sequence (P10980 whole entry, looked up): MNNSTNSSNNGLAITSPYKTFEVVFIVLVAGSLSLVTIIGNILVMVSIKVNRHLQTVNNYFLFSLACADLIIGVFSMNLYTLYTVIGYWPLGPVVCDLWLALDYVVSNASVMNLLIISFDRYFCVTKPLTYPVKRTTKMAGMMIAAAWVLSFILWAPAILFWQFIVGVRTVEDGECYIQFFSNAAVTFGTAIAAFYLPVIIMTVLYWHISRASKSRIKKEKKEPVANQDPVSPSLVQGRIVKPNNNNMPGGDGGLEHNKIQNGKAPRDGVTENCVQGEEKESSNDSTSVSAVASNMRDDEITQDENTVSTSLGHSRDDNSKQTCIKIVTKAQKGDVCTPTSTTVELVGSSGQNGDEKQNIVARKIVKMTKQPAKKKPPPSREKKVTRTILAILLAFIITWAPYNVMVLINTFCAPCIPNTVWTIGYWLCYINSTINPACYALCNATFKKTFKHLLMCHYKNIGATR
# runDescription: rat M2 muscarinic receptor PAM counter-screen, SAR follow-up, selectivity assay for M4 PAM optimization project, CHO cells, Gqi5 chimera, calcium, ACh EC20 (AID 623941)
# measurementContext: CHO rM2/Gqi5 calcium fluorescence, ACh EC20 potentiation
reportedMetric: EC50

// EC50 lookup, compound = "Cc1nc2sc(C(=O)NC3CC3)c(N)c2c(C)c1Cl" , result: 640 nM

###

# studySystem: Muscarinic acetylcholine receptor M2 (Rattus norvegicus) (UniProt P10980)
# runDescription: rat M2 muscarinic receptor PAM counter-screen, SAR follow-up, selectivity assay for M4 PAM optimization project, CHO cells, Gqi5 chimera, calcium, ACh EC20 (AID 623941)
# measurementContext: CHO rM2/Gqi5 calcium fluorescence, ACh EC20 potentiation; at 30 µM (top of the series)
Active and inactive are the calls of the source.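 How the source made its calls: active means response rises or falls steadily with concentration, forming a dose-response curve as judged by the submitting lab; inactive means the rest.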
reportedMetric: % ACh max response

smilesinput=Cc1nc2sc(C(=O)NCc3nccs3)c(N)c2c(C)c1Cl reportedmetric="% ACh max response" val=inactive
smilesinput=Cc1nc2sc(C(=O)NCc3cccc(F)c3F)c(N)c2c(C)c1Cl reportedmetric="% ACh max response" val=inactive
smilesinput=Cc1nc2sc(C(=O)NCc3ccncn3)c(N)c2c(C)c1Cl reportedmetric="% ACh max response" val=inactive
smilesinput=Cc1nc2sc(C(=O)NCCc3ccncc3)c(N)c2c(C)c1Cl reportedmetric="% ACh max response" val=inactive

Kindly consider the entry below.
// % ACh max response lookup, molecule = "COc1ccc(C)c2sc(NC(=O)c3ccncc3)nc12" , result: inactive
